- studySystem: PRKX (Homo sapiens, UniProt P51817)
- Sequence (P51817 whole entry): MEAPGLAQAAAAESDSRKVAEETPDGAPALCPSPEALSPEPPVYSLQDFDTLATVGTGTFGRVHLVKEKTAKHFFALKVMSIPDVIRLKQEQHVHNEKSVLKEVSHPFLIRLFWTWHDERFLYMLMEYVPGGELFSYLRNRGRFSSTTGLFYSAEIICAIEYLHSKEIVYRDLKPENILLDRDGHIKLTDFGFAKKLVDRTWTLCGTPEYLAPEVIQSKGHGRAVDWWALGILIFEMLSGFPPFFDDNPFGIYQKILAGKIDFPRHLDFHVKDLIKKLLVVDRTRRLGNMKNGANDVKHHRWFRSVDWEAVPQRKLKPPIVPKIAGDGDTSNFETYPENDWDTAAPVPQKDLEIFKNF
- assayText: In-cell infrared fluorescence imaging (Odyssey) of S214 phosphorylated tau and total tau in PRKX-transfected H4-tau cells
- Format: cell-based
- Design: using change-1F and hPRKX-1R as primers to give mutant PRKX full-length DNA; expressed in transfected cells; host or cells: H4-tau cells (human H4 neuroglial cells stably expressing human tau), transiently transfected with pPRKXkai (pTARGET vector)
- details: H-89 10-0.1 μM, 2 hr; H4-tau cells in 96 well plate, pPRKXkai; read-out: IC50 of suppression of the amount of tau S214 phosphorylation (infrared fluorescence imaging)
measurementKind: IC50 (nM)
Write the number in nM without appending the unit.

IC50 recorded for this compound, `O=S(=O)(NCCNC/C=C/c1ccc(Br)cc1)c1cccc2cnccc12` , is 700
